// normalized growth lookup, one value per entry
test: chemical genetic growth profiling, strain panel (AID 1159580);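 further: tested at 20 µM; growth read once vehicle control cultures reached saturation at 30 °C; 1 = growth at the plate median or of vehicle wells; lower values mean less growth of the strain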; conditions: S. cerevisiae deletion strains, growth OD, locus YMR125W, strain sto1, hits give low values
Among all 5,500 compounds or so, about 2,000 (36%) were called active. Inconclusive results (about 18%) are left out. Some of the results follow.
// response body must contain only the number

Input: What does the record list as normalized growth for CC(=O)Oc1c2c(c3c(c1CC=C(C)C)O[C@]14C(=C[C@@H]5CC1C(C)(C)OC4(C/C=C(\C)C(=O)O)C5=O)C3=O)OC(C)(CCC=C(C)C)C=C2 (some centres undefined) ?
Output: 0.992

Input: Same thing, different compound: CCCCC(=O)O[C@]1(C(=O)CO)CCC2C3CCC4=CC(=O)CC[C@]4(C)C3[C@@H](O)C[C@@]21C (some centres undefined)
Output: 0.961

Input: Same thing, different compound: COc1ccc2c(c1)OCC(Cc1ccc(OC)c(OC(C)=O)c1)C2=O (centres undefined)
Output: 0.985

Input: Same thing, different compound: C[C@]12CCC3c4ccc(OC(=O)c5ccccc5)cc4CCC3C1CCC2=O (some centres undefined)
Output: 0.978

Input: Same thing, different compound: COc1ccc2c(c1)OCC(Cc1ccc(OC)c(O)c1)C2=O (centres undefined)
Output: 1.01

Input: Same thing, different compound: COc1cc(NS(C)(=O)=O)ccc1Cc1c2ccccc2nc2ccccc12
Output: 0.98

Input: Same thing, different compound: CC12CCC3C(=CCc4cc(O)ccc43)C1CCC2=O (centres undefined)
Output: 0.988

Input: Same thing, different compound: COc1cc2c(cc1OC)C1(O)C(=O)c3ccc(O)c(C(=O)O)c3OC1CO2 (centres undefined)
Output: 0.983

Input: Same thing, different compound: NC(=O)CS(=O)C(c1ccccc1)c1ccccc1 (centres undefined)
Output: 1.04

Input: Same thing, different compound: COc1ccc2c(c1)OCC(Cc1ccc(OC)c(OC)c1)C2=O (centres undefined)
Output: 0.994

***
Input: What does the record list as normalized growth for O=c1cccc2n1CC1CC2CN2CCCC[C@@H]12 (some centres undefined) ?
Output: 0.944

Input: Same thing, different compound: CC1(C)N([O-])[N+](=O)C1(C)Br (centres undefined)
Output: 0.974

Input: Same thing, different compound: COC[C@]12CN(C=O)C3[C@@H]4[C@H](OC)C1[C@]3(C1CC3(O)C(OC)C(O)C4(OC(C)=O)C1C3OC(=O)c1ccccc1)[C@@H](OC)C[C@H]2O (some centres undefined)
Output: 1.01

Input: Same thing, different compound: COc1ccc2c(c1)OCC(Cc1ccc(O)c(OC)c1)C2=O (centres undefined)
Output: 0.948

Input: Same thing, different compound: NCCCNCCSP(=O)(O)O
Output: 0.975

Input: Same thing, different compound: COC(=O)/C(C)=C\CC12OC(C)(C)C3CC(C=C4C(=O)c5c(OC)c6c(c(CC=C(C)C)c5OC431)OC(C)(CCC=C(C)C)C=C6)C2=O (centres undefined)
Output: 1.02
